Attribution: patent US20240385190A1

# SYSTEM_NAME: MBP
# EXPERIMENT_DESCRIPTION: ELISA
MEASURED_ATTRIBUTE: absorbance
Form rule: numeric answer, no unit written next to it.

Input: Reported absorbance, binder KPEP11_04 (antibody, V domains shown, Rabbit IgG/kappa; Used HRP-labeled as detection antibody in the sandwich ELISAs; also called anti-human EphA4 rabbit monoclonal antibody KPEP11_04; HRP-labeled KPEP11_04) VH: QEQLKESGGRLVTPGGSLTLTCTVSGIDLSSYAMSWVRQAPEKGLEWIGFINMYGTYYASWAKGRFTISRTSTTVDLKVTSLTTEDTATYFCVRGGRSPDYDIVSGDIWGPGTLVTVSS VL: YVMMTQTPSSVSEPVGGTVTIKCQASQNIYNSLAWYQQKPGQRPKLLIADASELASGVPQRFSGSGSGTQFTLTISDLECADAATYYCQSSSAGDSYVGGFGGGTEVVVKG : ____
Output: 0.267
